Items are presented alongside their recorded melting point.

The cases that follow already have their melting point on record.
CCc1cc(C(=O)N2CCn3c(C)ccc3C2C)nc2cc(-c3ccc(/C=C/C(=O)O)cc3F)nn12 (stereo not drawn) = 240 to 245 °C
CCc1cc(C(=O)N2CCCCCC2C)nc2cc(-c3ccc(NC(=O)CCC(=O)N(C)C)cc3F)nn12 (stereo not drawn) = 180 to 185 °C

Now consider a different molecule.
Data request: Fill in reported melting point for this entry: CCc1cc(C(=O)N2CC(C)(C)c3ccccc3C2C)nc2cc(-c3ccc(C(=O)O)cc3F)nn12 (stereo not drawn)
Data returned: 235 to 240 °C

* * *

Items are presented alongside their recorded melting point.

The cases that follow already have their melting point on record.
CCc1cc(C(=O)N2CCCCCC2C)nc2cc(-c3cc4cccnc4cc3F)nn12 (centres unmarked) [Compound A24] = 145 to 150 °C
CCc1cc(C(=O)N2CCCCCC2C)nc2cc(-c3ccc(NC(=O)Nc4cccc(F)c4)cc3)nn12 (centres unmarked) [Compound B6] = 260 to 265 °C

Data request: Fill in reported melting point for this entry: CCc1cc(C(=O)N2CCCCCC2C)nc2cc(-c3ccc(NC(=O)CC4CCCCN(C)C4=O)cc3)nn12 (centres unmarked) [Compound E9]
Data returned: 255 to 260 °C

Data request: Fill in reported melting point for this entry: CC1CCCCCN1C(=O)c1cc(N(C)C)n2nc(-c3ccc(C#N)cc3F)cc2n1 (centres unmarked) [Compound H2]
Data returned: 194 to 195 °C

Data request: Fill in reported melting point for this entry: CCc1cc(C(=O)N2CCCCCC2C)nc2cc(-c3ccc4[nH]ccc4c3)nn12 (centres unmarked) [Compound A7]
Data returned: 195 to 197 °C

* * *

Assay: Cytotoxicity in HeLa cells, ATP content measured with the ATPlite kit
Format: cell-based
Details: human, TOX HELA pCC50
MEASURED ATTRIBUTE: CC50 at 3 days

The cases that follow already have their CC50 at 3 days on record.
CC(C)=Cc1cc(C(=O)N2CCCCC[C@H]2C)nc2cc(-c3ccc(N4CC[C@H](C(=O)O)C4)cc3F)nn12 [Compound W15] = 57.5 µM
CCc1cc(C(=O)N2CCCCC[C@H]2C)nc2cc(-c3ccc(-n4cc(C(=O)O)c(C)n4)cc3F)nn12 (racemic) [Compound W25] = 66.1 µM
CCc1cc(C(=O)N2CCn3cccc3[C@H]2C)nc2cc(-c3ccc([C@H]4C[C@@H]4C(=O)O)cc3F)nn12 (relative stereo) [Compound O19] = 91.2 µM

Data request: Fill in reported CC50 at 3 days for this entry: CCc1cc(C(=O)N2CCCCCC2C)nc2cc(-c3ccc(N/C(=N/C#N)NC4CC4)cc3F)nn12 (stereo not shown) [Compound B17]
Data returned: > 25.1 µM

Data request: Fill in reported CC50 at 3 days for this entry: C[C@@H]1c2ccsc2CCN1C(=O)c1cc(C2(C)CC2)n2nc(-c3ccc([C@@H]4C[C@H]4C(=O)O)cc3F)cc2n1 [Compound O21]
Data returned: 55 µM

Data request: Fill in reported CC50 at 3 days for this entry: CCc1cc(C(=O)N2CCCCCC2C)nc2cc(-c3ccc(N(C)C)cc3F)nn12 (stereo not shown) [Compound A6]
Data returned: 57.5 µM

Data request: Fill in reported CC50 at 3 days for this entry: CCc1cc(C(=O)N2CCCCC[C@H]2C)nc2cc(-c3ccc(N4CCC[C@@H](C(=O)O)C4)cc3F)nn12 [Compound W4]
Data returned: 89.1 µM

Data request: Fill in reported CC50 at 3 days for this entry: CCc1cc(C(=O)N2CCCCC2C)nc2cc(-c3ccc(NC(=O)C4CC4)cc3)nn12 (stereo not shown) [Compound E15]
Data returned: > 96.2 µM

Data request: Fill in reported CC50 at 3 days for this entry: CCc1cc(C(=O)N2CCCCCC2C)nc2cc(-c3ccc(C(N)=O)cc3)nn12 (stereo not shown) [Compound A25]
Data returned: > 100 µM
